Where these numbers come from: paper PMC9144521

# procedure_text: in vitro
# protocol_conditions: African green monkey, Vero cells
quantity_kind: CC50 at 48 h

Q: Supply recorded CC50 at 48 h for CC1(C)CC(=O)c2c(C(F)(F)F)nn(-c3ccc(C(N)=O)c(N[C@H]4CC[C@H](O)CC4)c3)c2C1 [SNX-2112] here.
Ans: > 5 µM

Q: Supply recorded CC50 at 48 h for COc1cc(Nc2ncc(F)c(Nc3ccc4c(n3)N(COP(=O)(O)O)C(=O)C(C)(C)O4)n2)cc(OC)c1OC [R788] here.
Ans: 1.56 µM

Q: Supply recorded CC50 at 48 h for S=C(NCc1ccc2c(c1)OCO2)N1CCN(c2ncnc3c2oc2ccccc23)CC1 [Amuvatinib] here.
Ans: > 5 µM

Q: Supply recorded CC50 at 48 h for O=C(/C=C\n1cnc(-c2cc(C(F)(F)F)cc(C(F)(F)F)c2)n1)NNc1ccccn1 [KPT-335] here.
Ans: 1.9 µM

Q: Supply recorded CC50 at 48 h for CC(C)NCCCn1c(Sc2cc3c(cc2I)OCO3)nc2c(N)ncnc21 [PU-H71] here.
Ans: > 5 µM

Q: Supply recorded CC50 at 48 h for CCNC(=O)Nc1ccc(-c2nc3c(c(N4CCOC[C@@H]4C)n2)CCN(C2COC2)C3)cc1 [GDC-0349] here.
Ans: > 5 µM

Q: Supply recorded CC50 at 48 h for CO[C@H]1CC[C@H](N2C(=O)CNc3ncc(-c4ccc(C(C)(C)O)nc4)nc32)CC1 [CC-223] here.
Ans: > 5 µM

Q: Supply recorded CC50 at 48 h for CC(C)n1nc(-c2ccc3oc(N)nc3c2)c2c(N)ncnc21 [INK 128] here.
Ans: 0.85 µM

Q: Supply recorded CC50 at 48 h for CCCCOc1c(C(=O)c2c(F)cc(C)cc2F)c[nH]c2nncc1-2 [BMS-265246] here.
Ans: > 5 µM

Q: Supply recorded CC50 at 48 h for CN1CCN(c2ccc(Nc3ncc4cc(C#N)c(=O)n(C5CCCC5)c4n3)cc2)CC1 [ON123300] here.
Ans: > 5 µM

---

Would you kindly list CC50 at 48 h for each of these compounds?
# procedure_text: in vitro
# protocol_conditions: African green monkey
Where a name gives a salt, the structure may show the parent alone.

Q: Supply recorded CC50 at 48 h for CNC(=O)c1cc(Oc2ccc(NC(=O)Nc3ccc(Cl)c(C(F)(F)F)c3)cc2)ccn1 [Sorafenib Tosylate] here.
Ans: > 5 µM

Q: Supply recorded CC50 at 48 h for COc1c(C)cnc(Cn2cnc3c(Cl)nc(N)nc32)c1C here.
Ans: > 5 µM

Q: Supply recorded CC50 at 48 h for CNC(=O)c1cccc(-c2ccc3c(N4CCOC[C@@H]4C)nc(N4CCOC[C@@H]4C)nc3n2)c1 here.
Ans: 4.05 µM

Q: Supply recorded CC50 at 48 h for C=CCNC1=C2C[C@@H](C)C[C@H](OC)[C@H](O)[C@@H](C)/C=C(\C)[C@H](OC(N)=O)[C@@H](OC)/C=C\C=C(/C)C(=O)NC(=CC1=O)C2=O here.
Ans: > 5 µM

Q: Supply recorded CC50 at 48 h for O=C(c1ccc(/C=C/c2n[nH]c3ccccc23)cc1)N1CCNCC1 here.
Ans: > 5 µM

Q: Supply recorded CC50 at 48 h for CNC(=O)c1ccc(C)c(-n2c(C)cc(OCc3ccc(F)cc3F)c(Br)c2=O)c1 here.
Ans: > 5 µM

Q: Supply recorded CC50 at 48 h for Cc1ccc(-n2nc(C(C)(C)C)cc2NC(=O)Nc2ccc(OCCN3CCOCC3)c3ccccc23)cc1 here.
Ans: > 5 µM

Q: Supply recorded CC50 at 48 h for CCn1c(=O)c(-c2cc[nH]n2)cc2c(C)nc(N)nc21 here.
Ans: 2.26 µM

Q: Supply recorded CC50 at 48 h for CC1(C)CC(=O)c2c(C(F)(F)F)nn(-c3ccc(C(N)=O)c(N[C@H]4CC[C@H](OC(=O)CN)CC4)c3)c2C1 here.
Ans: > 5 µM

Q: Supply recorded CC50 at 48 h for CO[C@H]1/C=C\C=C(/C)C(=O)NC2=CC(=O)C(NCCN(C)C)=C(C[C@@H](C)C[C@H](OC)[C@H](O)[C@@H](C)/C=C(\C)[C@@H]1OC(N)=O)C2=O here.
Ans: > 5 µM

Q: Supply recorded CC50 at 48 h for CO[C@@H](C)Cn1c(=O)n(C)c2cnc3ccc(-c4cncc(C(C)(C)O)c4)cc3c21 here.
Ans: > 5 µM

---

So I've got CC50 readings for Vero cells, take a look.

Q: Supply recorded CC50 for Cl.Cl.O=S(=O)(NCCNC/C=C/c1ccc(Br)cc1)c1cccc2cnccc12 [H 89 2HCl] here.
Ans: > 5 µM

Q: Supply recorded CC50 for CNC(=O)Nc1ccc(-c2nc(N3CC4CCC(C3)O4)c3cnn(C4CCC5(CC4)OCCO5)c3n2)cc1 here.
Ans: > 5 µM

Q: Supply recorded CC50 for COc1cc(Nc2ncc(F)c(Nc3ccc4c(n3)NC(=O)C(C)(C)O4)n2)cc(OC)c1OC here.
Ans: > 5 µM
